# target-under-test: Fyn (UniProt P06241)
# Sequence (P06241 whole entry, looked up): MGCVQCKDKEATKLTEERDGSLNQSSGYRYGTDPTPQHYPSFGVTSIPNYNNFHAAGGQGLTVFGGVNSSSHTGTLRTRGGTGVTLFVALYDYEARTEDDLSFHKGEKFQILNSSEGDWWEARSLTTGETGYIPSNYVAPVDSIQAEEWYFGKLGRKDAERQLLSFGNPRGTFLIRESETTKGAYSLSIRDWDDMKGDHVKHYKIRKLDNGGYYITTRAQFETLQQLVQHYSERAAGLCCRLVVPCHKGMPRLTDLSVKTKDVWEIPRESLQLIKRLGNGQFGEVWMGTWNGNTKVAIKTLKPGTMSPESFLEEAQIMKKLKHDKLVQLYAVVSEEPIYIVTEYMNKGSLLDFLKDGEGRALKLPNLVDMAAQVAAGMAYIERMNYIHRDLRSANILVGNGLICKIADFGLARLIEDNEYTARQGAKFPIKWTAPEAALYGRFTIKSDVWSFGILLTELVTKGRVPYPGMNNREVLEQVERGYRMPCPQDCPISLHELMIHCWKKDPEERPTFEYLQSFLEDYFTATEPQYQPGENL
# assay-overview: phosphorylation enrichment, bacterial display (enrichment ratio); higher = better substrate or ligand; peptides without Tyr show the background;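 note: 11-residue human phosphosite peptides and single-mutation variants displayed on the E. coli surface, counted by deep sequencing, each peptide's frequency after selection divided by its frequency in the unselected input library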;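 note: frequency after pTyr selection over input frequency; kinase dosed for 20-30% of maximal phosphorylation in three min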
Consider the following sequences; for each one, report its phosphorylation enrichment.
Number only, please.

input: Requested read-out: phosphorylation enrichment. Entry: QDIMAYRGREV [BCL6_Y157]
output: 0.632

input: Requested read-out: phosphorylation enrichment. Entry: MPQNEYIELHC [NSA2_Y6_R11C]
output: 0.615

input: Requested read-out: phosphorylation enrichment. Entry: RFLERYIFNRQ [HLA-DPB1_Y57_E62Q_YF]
output: 0.535

input: Requested read-out: phosphorylation enrichment. Entry: VKPENYRRPDI [VHL_Y175_L178P]
output: 0.333

input: Requested read-out: phosphorylation enrichment. Entry: SQETYYRVSNM [ABCD1_Y181_Q178E]
output: 2

input: Requested read-out: phosphorylation enrichment. Entry: GQDLLYEDEDL [PACS1_Y303_F302L]
output: 0.674

input: Requested read-out: phosphorylation enrichment. Entry: VIGRMYDFHVL [RPF2_Y109_YF]
output: 0.469

input: Requested read-out: phosphorylation enrichment. Entry: LGMSQYFRLFN [CPT2_Y217_D213G]
output: 0.364

input: Requested read-out: phosphorylation enrichment. Entry: KASIMYPSNNC [CXCL11_Y52]
output: 0.446

====

# target-under-test: EPHB1 (UniProt P54762)
# Sequence (P54762 whole entry, looked up): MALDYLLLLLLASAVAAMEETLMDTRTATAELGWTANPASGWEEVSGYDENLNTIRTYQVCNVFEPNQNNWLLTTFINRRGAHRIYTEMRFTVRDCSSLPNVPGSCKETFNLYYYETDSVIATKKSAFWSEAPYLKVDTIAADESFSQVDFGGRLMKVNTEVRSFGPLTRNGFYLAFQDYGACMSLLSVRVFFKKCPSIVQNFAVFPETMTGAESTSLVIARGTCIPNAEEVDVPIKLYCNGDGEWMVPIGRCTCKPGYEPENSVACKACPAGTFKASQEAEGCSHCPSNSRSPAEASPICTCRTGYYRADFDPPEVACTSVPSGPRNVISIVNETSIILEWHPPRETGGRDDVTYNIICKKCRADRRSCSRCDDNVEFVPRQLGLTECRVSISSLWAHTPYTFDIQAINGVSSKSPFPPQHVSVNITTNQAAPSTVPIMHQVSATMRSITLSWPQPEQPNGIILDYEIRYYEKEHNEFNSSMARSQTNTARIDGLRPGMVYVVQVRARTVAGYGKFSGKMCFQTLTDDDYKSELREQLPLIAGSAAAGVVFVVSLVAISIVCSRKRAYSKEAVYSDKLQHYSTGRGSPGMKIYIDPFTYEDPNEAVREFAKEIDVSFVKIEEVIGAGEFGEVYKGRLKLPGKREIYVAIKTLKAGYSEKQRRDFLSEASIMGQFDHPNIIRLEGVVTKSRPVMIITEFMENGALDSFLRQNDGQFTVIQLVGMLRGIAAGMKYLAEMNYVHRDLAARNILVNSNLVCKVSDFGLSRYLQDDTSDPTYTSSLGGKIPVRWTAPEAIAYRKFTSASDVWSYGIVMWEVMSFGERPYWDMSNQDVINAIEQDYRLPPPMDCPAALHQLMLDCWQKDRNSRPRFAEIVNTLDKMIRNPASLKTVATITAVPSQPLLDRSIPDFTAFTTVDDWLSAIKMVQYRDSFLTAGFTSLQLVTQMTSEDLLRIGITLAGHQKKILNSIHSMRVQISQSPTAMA
# assay-overview: phosphorylation enrichment, bacterial display (enrichment ratio); higher = better substrate or ligand; peptides without Tyr show the background
quantity-kind: phosphorylation enrichment
Number only, please.

input: Requested read-out: phosphorylation enrichment. Entry: QRALLYEDALF [UNC13D_Y56_YF]
output: 10.4

input: Requested read-out: phosphorylation enrichment. Entry: LNPLVYTLRNA [OR4C12_Y285_V283L]
output: 0.712

input: Requested read-out: phosphorylation enrichment. Entry: HYGNNYTDVLQ [MACC1_Y803_R804T]
output: 5.63

input: Requested read-out: phosphorylation enrichment. Entry: TQNGVYSAANY [DDX5_Y535]
output: 1.26

input: Requested read-out: phosphorylation enrichment. Entry: EICTQYEAMAS [GFAP_Y242_R239C]
output: 0.65

====

Consider the following sequences; for each one, report its phosphorylation enrichment.
# target-under-test: EPHB2 (UniProt P29323)
# Sequence (P29323 whole entry, looked up): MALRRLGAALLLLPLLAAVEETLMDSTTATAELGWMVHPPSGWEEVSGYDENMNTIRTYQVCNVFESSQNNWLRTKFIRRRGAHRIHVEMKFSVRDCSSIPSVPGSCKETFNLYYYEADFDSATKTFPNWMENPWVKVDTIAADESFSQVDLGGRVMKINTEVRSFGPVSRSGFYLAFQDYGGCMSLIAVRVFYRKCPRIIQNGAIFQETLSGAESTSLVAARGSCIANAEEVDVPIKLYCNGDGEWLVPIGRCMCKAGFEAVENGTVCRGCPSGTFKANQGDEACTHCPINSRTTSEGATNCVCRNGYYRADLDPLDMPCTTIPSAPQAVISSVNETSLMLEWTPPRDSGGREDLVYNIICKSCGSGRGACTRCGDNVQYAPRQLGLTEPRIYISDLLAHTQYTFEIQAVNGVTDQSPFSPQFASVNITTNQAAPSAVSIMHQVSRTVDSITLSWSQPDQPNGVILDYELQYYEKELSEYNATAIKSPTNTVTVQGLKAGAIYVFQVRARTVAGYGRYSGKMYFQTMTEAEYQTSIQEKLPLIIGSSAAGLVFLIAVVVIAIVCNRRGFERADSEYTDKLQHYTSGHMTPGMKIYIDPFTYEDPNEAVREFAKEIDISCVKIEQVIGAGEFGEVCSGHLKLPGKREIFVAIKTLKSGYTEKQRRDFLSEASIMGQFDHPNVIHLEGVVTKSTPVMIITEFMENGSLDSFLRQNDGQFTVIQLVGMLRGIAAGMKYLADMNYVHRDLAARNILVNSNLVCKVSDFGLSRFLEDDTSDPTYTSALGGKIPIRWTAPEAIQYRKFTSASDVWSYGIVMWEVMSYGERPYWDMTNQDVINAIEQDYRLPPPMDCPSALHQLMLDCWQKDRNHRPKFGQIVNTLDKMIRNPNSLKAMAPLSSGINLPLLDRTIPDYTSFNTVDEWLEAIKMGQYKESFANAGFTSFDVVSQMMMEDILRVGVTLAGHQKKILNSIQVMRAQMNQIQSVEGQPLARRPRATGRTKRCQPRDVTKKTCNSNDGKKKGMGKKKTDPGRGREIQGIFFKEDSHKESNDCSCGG
# assay-overview: phosphorylation enrichment, bacterial display (enrichment ratio); higher = better substrate or ligand; peptides without Tyr show the background

input: Requested read-out: phosphorylation enrichment. Entry: GIVEDYRPPFY [ACVRL1_Y421]
output: 0.502

input: Requested read-out: phosphorylation enrichment. Entry: RRVPVYGGRGA [QDPR_Y16_L14P]
output: 0.512

input: Requested read-out: phosphorylation enrichment. Entry: QRRFVYFFSFL [PTEN_Y176_YF]
output: 0.61

input: Requested read-out: phosphorylation enrichment. Entry: RLGDLYEEEMR [VIM_Y150]
output: 0.691

input: Requested read-out: phosphorylation enrichment. Entry: RTEAQYRFIYM [PTPN11_Y511_Q506R]
output: 0.9

====

# target-under-test: MERTK (UniProt Q12866)
# Sequence (Q12866 whole entry, looked up): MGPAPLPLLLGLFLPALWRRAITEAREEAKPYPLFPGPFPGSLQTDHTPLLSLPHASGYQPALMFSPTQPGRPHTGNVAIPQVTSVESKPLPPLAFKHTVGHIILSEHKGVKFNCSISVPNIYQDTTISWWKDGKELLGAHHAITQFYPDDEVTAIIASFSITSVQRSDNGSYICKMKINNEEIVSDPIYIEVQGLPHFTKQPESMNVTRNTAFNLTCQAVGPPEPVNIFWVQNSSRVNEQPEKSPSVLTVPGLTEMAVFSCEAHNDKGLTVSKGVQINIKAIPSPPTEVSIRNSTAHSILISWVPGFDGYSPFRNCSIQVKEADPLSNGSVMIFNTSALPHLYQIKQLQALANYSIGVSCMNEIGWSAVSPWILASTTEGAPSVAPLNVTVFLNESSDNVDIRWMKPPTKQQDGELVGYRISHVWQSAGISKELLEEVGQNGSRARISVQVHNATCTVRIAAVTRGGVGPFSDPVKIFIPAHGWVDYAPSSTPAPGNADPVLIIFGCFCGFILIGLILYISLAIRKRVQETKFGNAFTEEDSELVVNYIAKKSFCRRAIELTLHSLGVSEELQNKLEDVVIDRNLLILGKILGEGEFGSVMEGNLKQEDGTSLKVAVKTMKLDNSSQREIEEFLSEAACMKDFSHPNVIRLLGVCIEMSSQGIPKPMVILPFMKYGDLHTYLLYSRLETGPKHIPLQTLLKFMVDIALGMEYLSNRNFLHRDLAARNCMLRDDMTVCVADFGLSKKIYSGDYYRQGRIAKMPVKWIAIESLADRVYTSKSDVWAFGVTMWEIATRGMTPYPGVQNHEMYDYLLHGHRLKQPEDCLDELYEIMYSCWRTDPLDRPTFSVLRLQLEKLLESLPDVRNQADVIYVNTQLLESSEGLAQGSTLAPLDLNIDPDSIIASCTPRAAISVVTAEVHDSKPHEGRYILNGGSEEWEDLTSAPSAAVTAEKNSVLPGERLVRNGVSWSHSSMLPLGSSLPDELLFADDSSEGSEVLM
# assay-overview: phosphorylation enrichment, bacterial display (enrichment ratio); higher = better substrate or ligand; peptides without Tyr show the background
Binning of phosphorylation enrichment into classes: lower bin: < 0.4; middle bin: ≥ 0.4 and < 0.8; upper bin: ≥ 0.8

input: Kindly state the category for this sequence: LNPLVYTLRNA [OR4C12_Y285_V283L]
output: upper bin

input: Kindly state the category for this sequence: LLVVVYKYRCY [PSEN1_Y154_L153V]
output: middle bin

input: Kindly state the category for this sequence: ALAHKHHGGGG [HBB_Y146_Y146H]
output: middle bin

input: Kindly state the category for this sequence: LFLALYTGLVR [PIGB_Y402_H407R]
output: middle bin

input: Kindly state the category for this sequence: QNTGVYYDLYG [PTPN11_Y62_D61V]
output: upper bin

input: Kindly state the category for this sequence: LDLSFYPTSSS [EMD_Y182_YF]
output: middle bin

input: Kindly state the category for this sequence: VDDQIYFFRKP [PBRM1_Y1289_E1287Q_YF]
output: upper bin

input: Kindly state the category for this sequence: ASLEAYCKHKF [RXRA_Y403_YF]
output: middle bin

input: Kindly state the category for this sequence: GGPAGYLRRAS [PKLR_Y38]
output: middle bin

input: Kindly state the category for this sequence: VCHELYNAIRD [PBRM1_Y54_T56A]
output: middle bin

input: Kindly state the category for this sequence: FVPAAYVKKLD [SPTAN1_Y1020]
output: lower bin

input: Kindly state the category for this sequence: KILAKYLLETS [NAMPT_Y175]
output: lower bin

input: Kindly state the category for this sequence: EFNLMYDGTKE [IRF6_Y97]
output: middle bin

input: Kindly state the category for this sequence: GADDSYFTVRS [ZAP70_Y492_A495V_YF]
output: middle bin

input: Kindly state the category for this sequence: SSFDIYHLSRE [KIR3DL2_Y253_YF]
output: upper bin

input: Kindly state the category for this sequence: SQQTYYRVSNM [ABCD1_Y181]
output: upper bin

input: Kindly state the category for this sequence: RTTIHYNYMCN [TP53_Y234_C229R]
output: upper bin

input: Kindly state the category for this sequence: KLIMEYLPFGS [JAK2_Y931_YF]
output: lower bin

input: Kindly state the category for this sequence: ICRWVYPLTPE [EIF2B5_Y319_R315C]
output: middle bin

input: Kindly state the category for this sequence: IDDNQYAFLKA [HNF4A_Y286_E285Q_YF]
output: upper bin
